In this section, each of the compounds is paired with its reported pIC50.
Target: Mcl-1/Bim interaction, recombinant human Mcl-1 (171-327) (Homo sapiens, UniProt Q07820)
Construct: made in house
Sequence (Q07820 171-327): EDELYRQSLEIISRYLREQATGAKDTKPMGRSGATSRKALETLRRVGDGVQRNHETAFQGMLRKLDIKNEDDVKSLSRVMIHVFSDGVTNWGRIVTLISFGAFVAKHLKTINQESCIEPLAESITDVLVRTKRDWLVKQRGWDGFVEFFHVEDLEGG
Assay: Cell free Mcl-1: Bim Affinity Assay (Mcl-1 HTRF)
Type: binding
Details: cell free Mcl-1:Bim TR-FRET, recombinant human Mcl-1 (171-327)
pIC50: −log10 of the molar value.
observed_property: pIC50

[[record]]
compound = "CC(C)OC(=O)CC1C(C)CC=CC(O)C2CCC2CN2CC3(CCCc4cc(Cl)ccc43)COc3ccc(cc32)C(=O)NS1(=O)=O (single isomer, unassigned) [Example 566]"
test_result = 9.42

[[record]]
compound = "CO[C@H](C)C[C@H]1CC/C=C/[C@H](O)[C@@H]2CC[C@H]2CN2C[C@@]3(CCCc4cc(Cl)ccc43)COc3ccc(cc32)C(=O)NS1(=O)=O (single isomer, unassigned) [Example 508]"
test_result = 8.22

[[record]]
compound = "COC(=O)CC[C@@H]1CC/C=C/[C@H](O)[C@@H]2CC[C@H]2CN2C[C@@]3(CCCc4cc(Cl)ccc43)COc3ccc(cc32)C(=O)NS1(=O)=O [Example 616]"
test_result = 9.75

[[record]]
compound = "COC1C=CCC(OC)C(C)S(=O)(=O)NC(=O)c2ccc3c(c2)N(CC2CCC21)CC1(CCCc2cc(Cl)ccc21)CO3 (single isomer, unassigned) [Example 717]"
test_result = 7.54

[[record]]
compound = "CO[C@@H]1/C=C/[C@H](O)[C@@H]2CC[C@H]2CN2C[C@@]3(CCCc4cc(Cl)ccc43)COc3ccc(cc32)C(=O)NS(=O)(=O)CC1 [Example 536]"
test_result = 8.70

[[record]]
compound = "CC[C@H]1CC/C=C/[C@H](O)[C@@H]2CC[C@H]2CN2C[C@@]3(CCc4cc(Cl)ccc43)COc3ccc(cc32)C(=O)NS1(=O)=O (single isomer, unassigned) [Example 700]"
test_result = 7.56

[[record]]
compound = "CO[C@H](C)C[C@@H]1[C@@H](C)C/C=C/[C@H](O)[C@@H]2CC[C@H]2CN2C[C@@]3(CCCc4cc(Cl)ccc43)COc3ccc(cc32)C(=O)NS1(=O)=O (single isomer, unassigned) [Example 540]"
test_result = 9.63

[[record]]
compound = "CO[C@H]1C/C=C/[C@H](O)[C@@H]2CC[C@H]2CN2C[C@@]3(CCCc4cc(Cl)ccc43)COc3ccc(cc32)C(=O)NS(=O)(=O)[C@@H]1CC(C)C (single isomer, unassigned) [Example 643]"
test_result = 9.47

[[record]]
compound = "C=C1/C=C/CC[C@@H](CC)S(=O)(=O)NC(=O)c2ccc3c(c2)N(C[C@@H]2CC[C@@H]12)C[C@@]1(CCCc2cc(Cl)ccc21)CO3 [Example 872]"
test_result = 8.20

[[record]]
compound = "O=C1NS(=O)(=O)C/C=C\\C[C@@H](O)C[C@@H]2CC[C@H]2CN2C[C@@]3(CCCc4cc(Cl)ccc43)COc3ccc1cc32 (single isomer, unassigned) [Example 914]"
test_result = 8.73

[[record]]
compound = "CC(C)(O)CC1CCC=CC(O)C2CCC2CN2CC3(CCCc4cc(Cl)ccc43)COc3ccc(cc32)C(=O)NS1(=O)=O (single isomer, unassigned) [Example 558]"
test_result = 9.55

[[record]]
compound = "CO[C@H](C)C[C@@H]1CC/C=C/[C@H](OC)[C@@H]2CC[C@H]2CN2C[C@@]3(CCCc4cc(Cl)ccc43)COc3ccc(cc32)C(=O)NS1(=O)=O (single isomer, unassigned) [Example 549]"
test_result = 9.26

[[record]]
compound = "C[C@@H]1[C@@H](C)C/C=C/[C@H](OCCN2CCCCC2=O)[C@@H]2CC[C@H]2CN2C[C@@]3(CCCc4cc(Cl)ccc43)COc3ccc(cc32)C(=O)NS1(=O)=O [Example 728]"
test_result = 9.36

[[record]]
compound = "COCC(O)CC1CCC=CC(OC)C2CCC2CN2CC3(CCCc4cc(Cl)ccc43)COc3ccc(cc32)C(=O)NS1(=O)=O (single isomer, unassigned) [Example 658]"
test_result = 9.55

[[record]]
compound = "CC(C)[C@@H]1CCCC[C@@H](O)[C@@H]2CC[C@H]2CN2C[C@@]3(CCCc4cc(Cl)ccc43)COc3ccc(cc32)C(=O)NS1(=O)=O (single isomer, unassigned) [Example 754]"
test_result = 8.05

[[record]]
compound = "COCC1COCCN1CCOC1C=CCC(C)C(C)S(=O)(=O)NC(=O)c2ccc3c(c2)N(CC2CCC21)CC1(CCCc2cc(Cl)ccc21)CO3 (mixture of isomers) [Example 530]"
test_result = 9.12

[[record]]
compound = "CC[C@H]1C/C=C/[C@H](O)[C@@H]2CC[C@H]2CN2C[C@@]3(CCCc4cc(Cl)ccc43)COc3ccc(cc32)C(=O)NS(=O)(=O)N1 (single isomer, unassigned) [Example 685]"
test_result = 8.58

[[record]]
compound = "COC(C)COC1C=CCC(C)C(C)S(=O)(=O)NC(=O)c2ccc3c(c2)N(CC2CCC21)CC1(CCCc2cc(Cl)ccc21)CO3 (mixture of isomers) [Example 519]"
test_result = 8.84

[[record]]
compound = "O=C1NS(=O)(=O)NCCC/C=C/[C@H](O)[C@@H]2CC[C@H]2CN2C[C@@]3(CCCc4cc(Cl)ccc43)COc3ccc1cc32 [Example 660]"
test_result = 9.43

[[record]]
compound = "CC1C(O)CC=CCC2CCC2CN2CC3(CCCc4cc(Cl)ccc43)COc3ccc(cc32)C(=O)NS1(=O)=O (single isomer, unassigned) [Example 507]"
test_result = 7.74


# credit: patent US12091425B2
